Listed below: pKd values for each entry.
# measurement target: feline FcRn complex (FcRn-α subunit and β-microglobulin) (feline)
# method: SPR (Biacore), FcRn on SA chip, pH 6
Bear in mind: pKd is minus log10 of a mol/L concentration; give just that figure.

Study these solved cases before continuing.
# binder, value type, recorded result
records = [
    ("feline IgG1a mutant ID No. 318: S428M, A431K, S434Y (antibody, part only; not given: Variable domains, not shown: another chain or arm of the molecule) constant: ASTTAPSVFPLAPSCGTTSGATVALACLVLGYFPEPVTVSWNSGALTSGVHTFPAVLQASGLYSLSSMVTVPSSRWLSDTFTCNVAHPPSNTKVDKTVRKTDHPPGPKPCDCPKCPPPEMLGGPSIFIFPPKPKDTLSISRTPEVTCLVVDLGPDDSDVQITWFVDNTQVYTAKTSPREEQFNSTYRVVSVLPILHQDWLKGKEFKCKVNSKSLPSPIERTISKAKGQPHEPQVYVLPPAQEELSRNKVSVTCLIKSFHPPDIAVEWEITGQPEPENNYRTTPPQLDSDGTYFVYSKLSVDRSHWQRGNTYTCSVMHEKLHYHHTQKSLTQSPGK", "pKd", 9.87),
    ("feline IgG1a mutant ID No. 338: S252Y, S428M, S434F, D399T (antibody, part only; not given: variable domains and light chain, not shown: another chain or arm of the molecule) constant: ASTTAPSVFPLAPSCGTTSGATVALACLVLGYFPEPVTVSWNSGALTSGVHTFPAVLQASGLYSLSSMVTVPSSRWLSDTFTCNVAHPPSNTKVDKTVRKTDHPPGPKPCDCPKCPPPEMLGGPSIFIFPPKPKDTLYISRTPEVTCLVVDLGPDDSDVQITWFVDNTQVYTAKTSPREEQFNSTYRVVSVLPILHQDWLKGKEFKCKVNSKSLPSPIERTISKAKGQPHEPQVYVLPPAQEELSRNKVSVTCLIKSFHPPDIAVEWEITGQPEPENNYRTTPPQLTSDGTYFVYSKLSVDRSHWQRGNTYTCSVMHEALHFHHTQKSLTQSPGK", "pKd", 10.57),
    ("feline IgG1a mutant ID No. 246: S252Y, S428M, S434W (antibody, part only; not given: Variable domains, not shown: another chain or arm of the molecule) constant: ASTTAPSVFPLAPSCGTTSGATVALACLVLGYFPEPVTVSWNSGALTSGVHTFPAVLQASGLYSLSSMVTVPSSRWLSDTFTCNVAHPPSNTKVDKTVRKTDHPPGPKPCDCPKCPPPEMLGGPSIFIFPPKPKDTLYISRTPEVTCLVVDLGPDDSDVQITWFVDNTQVYTAKTSPREEQFNSTYRVVSVLPILHQDWLKGKEFKCKVNSKSLPSPIERTISKAKGQPHEPQVYVLPPAQEELSRNKVSVTCLIKSFHPPDIAVEWEITGQPEPENNYRTTPPQLDSDGTYFVYSKLSVDRSHWQRGNTYTCSVMHEALHWHHTQKSLTQSPGK", "pKd", 10.39),
]

// recorded pKd for feline IgG1a mutant ID No. 283: S252Y, Q311W, D312P, L314K, S434Y (antibody, part only; not given: Variable domains, not shown: another chain or arm of the molecule) constant: ASTTAPSVFPLAPSCGTTSGATVALACLVLGYFPEPVTVSWNSGALTSGVHTFPAVLQASGLYSLSSMVTVPSSRWLSDTFTCNVAHPPSNTKVDKTVRKTDHPPGPKPCDCPKCPPPEMLGGPSIFIFPPKPKDTLYISRTPEVTCLVVDLGPDDSDVQITWFVDNTQVYTAKTSPREEQFNSTYRVVSVLPILHWPWKKGKEFKCKVNSKSLPSPIERTISKAKGQPHEPQVYVLPPAQEELSRNKVSVTCLIKSFHPPDIAVEWEITGQPEPENNYRTTPPQLDSDGTYFVYSKLSVDRSHWQRGNTYTCSVSHEALHYHHTQKSLTQSPGK : 8.94
